meta.source: patent US20230331820A1

ASSAYED_SYSTEM: gEgI mutant (R320D): HSV2 gEgI mutant heterodimer comprising gE and gI ectodomains with mutation R320D in gE (HSV2, UniProt P89475 21-416; P06764 21-256)
ASSAY_PROTOCOL: ELISA, supernatant
ENDPOINT: binding result

mAb clone 48 (antibody, V domains shown) VH: QVTLKESGPGILQPSQTLSLTCSFSGFSLSTSGMGVSWIRQPSGKGLEWLAHIYWDDDKRYNPSLKSRLTISKDTSSNQVFLKITSVDTADTATYYCARRGFYYRYDGGRRYYYAMDYWGQGTSVTVSS VL: DILLTQSPAILSVSPGERVSFSCRASQSIGTSIHWYQQGTNGSPRLLIKFASESISGIPSRFSGSGSGTDFTLSINSVESEDIADYYCQQSNSWPLTFGAGTKLELK = binds
mAb clone 43 (antibody, V domains shown, also called GEGI/43IIa) VH: DVKLVESGGGLVKPGGSLKLSCAASGFTFSSYTMSWVRQTPEKRLEWVATISSGGSYTYYPDSVKGRFTISRDNAKNTLYLQMSSLKAEDTAMYYCTRGGYGSSFENYFDYWGQGTTLTVSS VL: DIVMSQSPSSLAVSAGEKVTMSCKSSQSLLNSRTRKNYLAWYQQKPGQSPKLLIYWASTRESGVPDRFTGSGSGTDFTLTISSVQAEDLAVYSCKQSYNLPLTFGAGTKLELK = binds
mAb clone 44 (antibody, V domains shown) VH: EVQLQQSGPELEKPGASVKISCKASGYSFTGYNMNWVKQSNGKSLEWIGNIDPYYGGIRYNQKFKGKATLTVDKSSSTAYMQLKSLTSEDSAVYYCAREDRYLVHYYAMDYWGQGTSVTVSS VL: QIVLTQSPAIMSASPGEKVTMTCSASSSISYMHWYQQKPGTSPKRWIYDTSKLASGVPARFSGSGSGTSYSLTISSMEAEDAATYYCHQRSSYPYTFGGGTKLEIK = binds
